- run.description: yeast display, Sf9 membrane polyspecificity reagent, FACS + sequencing; frameworks hold sequencing errors
quantity.measured: polyreactivity (PSR sort gate)

Here is how some sequences turned out for polyreactivity (PSR sort gate).
seq.text: QVQLVESGGGLVQAGGSLRLSSAASARIFFKNTKGWYRPAPGKERELVAAITSSGSSTYYADSVKGRFTISRDNAKKTVYLQMNSLKPEDTAVYYCNALTWDHSRTGVDYWGQGTQVTVSS
polyreactivity (PSR sort gate): low polyreactivity

seq.text: QVQLVESGGGLVQAGGSLRLICAASGSIFSVNTMGWYREAPGKERELVATIRTGDSTNYADSVKGRFTISRDNAKNTVYLQMNSLKPEDTAVYYCAAEWSSLNFDYWGQGTQVTVSS
polyreactivity (PSR sort gate): low polyreactivity

seq.text: QVQLVESGGGLVQAGGSLRLSCAASGFTFRRYAMGWYRQAPGKERELVAAISLRSGRTNYADSVKGRFTISRDNAKNTVYLQMNSLKPEDTAVYYCAAGLYGKRAGTSYGYDYWGQGTQVTVSS
polyreactivity (PSR sort gate): high polyreactivity

seq.text: QVQLVESGGGLVQAGGSLRLSCAASGITLYSYAMGWYRPAPGKERELVAAISWDGGGTYYADSVKGRFTISRDNAKNTVYLQMNSLKPEDTAVYYCAADTQYTDGDSWGQGTQVTVSS
polyreactivity (PSR sort gate): high polyreactivity

seq.text: QVKLVESGGGLVQAGGSLRLSCAASGSIFYQYAMGGNRQAPGKERELVAVINRSGSSTYYADSVKGRFTISRDNAKNTVYLQMNSLKPEDTAVYYCAGASKYSEYNYWGQGTQVTVSS
polyreactivity (PSR sort gate): high polyreactivity

# context switch: different sequence, same polyreactivity (PSR sort gate)
Name the recorded polyreactivity (PSR sort gate) of the item QVQLVESGGGLVQAGGSLRLSCAASGFTFYRNAMGWYRQAPGKERELVAAISWSGDSTYYADSVKGRFTISRDNAKNTVYLQMNSLKPEDTAVYYCDKERYFYYPWVTTYTSNYWGQGTQVTVSS in your answer.
low polyreactivity

Numbers sourced from the nanobody polyreactivity screen of Harvey et al. (2022).
